Tested on: velvetleaf
Experiment: Test C pre-/postemergence test
Assay type: in vivo, Abutilon theophrasti
Details: Postemergence, 250 g ai/ha; scale 0 to 100, 0 no effect, 100 complete control

- COMPOUND: "Cc1cc[n+]([O-])c(S(=O)(=O)Cc2c(C(F)(F)F)nn(C)c2OC(F)F)c1"
  MEASURED ON: "velvetleaf"
  Plant response rating, Velvetleaf: 5
- COMPOUND: "Cn1nc(C(F)(F)F)c(C[S+]([O-])c2ccc(F)c[n+]2[O-])c1OC(F)F (stereo not shown)"
  MEASURED ON: "velvetleaf"
  Plant response rating, Velvetleaf: 5
- COMPOUND: "CC(c1c(C(F)(F)F)nn(C)c1OC(F)F)S(=O)(=O)c1cccc[n+]1[O-] (stereo not shown)"
  MEASURED ON: "velvetleaf"
  Plant response rating, Velvetleaf: 50
- COMPOUND: "CCn1nc(C(F)(F)F)c(C[S+]([O-])c2cccc[n+]2[O-])c1OCC(F)(F)F (racemic)"
  MEASURED ON: "velvetleaf"
  Plant response rating, Velvetleaf: 40

====

Test system: Virginia dayflower
Test: Test F preemergence test
Format: in vivo, Commelina virginica
Conditions: 125 g ai/ha, preemergence, scale 0 to 100
Dayflower plant response rating listing for selected compounds.
ATTRIBUTE MEASURED: Dayflower plant response rating

- COMPOUND: "CC(Oc1c(C[S+]([O-])c2cccc[n+]2[O-])c(C(F)(F)F)nn1C)C(F)(F)F (stereo not drawn) [Compound 77]"
  OBSERVED MEASUREMENT: 100
- COMPOUND: "Cn1nc(C(F)(F)C(F)(F)F)c(C[S+]([O-])c2cccc[n+]2[O-])c1OCC(F)(F)F (stereo not drawn) [Compound 79]"
  OBSERVED MEASUREMENT: 100
- COMPOUND: "Cn1nc(C(F)(F)F)c(C[S+]([O-])c2cccc[n+]2[O-])c1OCC(F)(F)F (racemic) [Compound 28]"
  OBSERVED MEASUREMENT: 100
- COMPOUND: "Cc1cc[n+]([O-])c(S(=O)(=O)Cc2c(C(F)(F)F)nn(C)c2Cl)c1 [Compound 19]"
  OBSERVED MEASUREMENT: 90
- COMPOUND: "Cc1cc([S+]([O-])Cc2c(C(F)(F)F)nn(C)c2OCC(F)(F)F)[n+]([O-])cc1Cl (stereo not drawn) [Compound 70]"
  OBSERVED MEASUREMENT: 100
- COMPOUND: "Cc1cc[n+]([O-])c(S(=O)(=O)Cc2c(C(F)(F)F)nn(C)c2OCC(F)(F)F)c1 [Compound 31]"
  OBSERVED MEASUREMENT: 100

====

System: blackgrass
Assay: Test C pre-/postemergence test
Format: in vivo, Alopecurus myosuroides
Conditions: Postemergence, 125 g ai/ha; scale 0 to 100, 0 no effect, 100 complete control
Each entry gets Condition not met if its Plant response rating, Blackgrass stays under 30, and Condition met if its Plant response rating, Blackgrass is 30 or above.

- MOLECULE: "CCn1nc(C(F)(F)F)c(C(C)S(=O)(=O)c2cccc[n+]2[O-])c1OCC(F)(F)F (centres unmarked) [Compound 69]"
  MEASURED ON: "blackgrass"
  ASSIGNED CLASS: "Condition met"
- MOLECULE: "Cc1cc[n+]([O-])c(S(=O)(=O)Cc2c(C(F)(F)F)nn(C)c2OC(F)F)c1 [Compound 2]"
  MEASURED ON: "blackgrass"
  ASSIGNED CLASS: "Condition not met"
- MOLECULE: "CCn1nc(C(F)(F)F)c(CS(=O)(=O)c2cc(C)cc[n+]2[O-])c1OCC(F)(F)F [Compound 64]"
  MEASURED ON: "blackgrass"
  ASSIGNED CLASS: "Condition met"
- MOLECULE: "[O-][n+]1cc(Cl)ccc1[S+]([O-])Cc1c(C(F)(F)F)nn(CC(F)(F)F)c1Cl (centres unmarked) [Compound 47]"
  MEASURED ON: "blackgrass"
  ASSIGNED CLASS: "Condition met"
